System: tet operator sequence
Test: β-galactosidase activity of a tetracycline-regulated promoter in transformed E. coli with revTetR, in the presence and absence of anhydrotetracycline (atc)
Type: cell-based, Escherichia coli
Settings: RevTetR isolate cultured in the presence of anhydrotetracycline (ATC)
quantity.kind: β-Galactosidase Activity, Cultured With ATC
Simply state the number, no unit and no words.

Which β-Galactosidase Activity, Cultured With ATC is reported for this molecule? TetRrevAtc4-47: revTetR(BD) L51L E58A I59N H63Y (protein, Modified tetracycline repressor, revTetR(BD) L51L E58A I59N H63Y) MSRLDKSKVINSALELLNEVGIEGLTTRKLAQKLGVEQPTLYWHVKNKRALLDALAVANLERYNDYSLPAAGESWQSFLRNNAMSFRRALLRYRDGAKVHLGTRPDEKQYDTVETQLRFMTENGFSLRDGLYAISAVSHFTLGAVLEQQEHTAALTDRPAAPDENLPPLLREALQIMDSDDGEQAFLHGLESLIRGFEVQLTALLQIV
13.969
